System: SW-620
procedure-summary: Cytotoxicity against human SW620 cells after 3 days by MTT assay
Format: functional
recorded-conditions: SW-620, 72 h, read-out: ED50 (the source's name)
Under this convention, condition met denotes EC50 strictly below 50 µg/mL and condition not met denotes EC50 at or above 50 µg/mL.

Past entries and their recorded results:
{"columns": ["compound-smiles", "experimental-system", "assigned-category"],
 "data": [
  ["Cc1ccc2cc(/C=C3/C(=O)N(c4c(Cl)cccc4Cl)c4ccccc43)c(Cl)nc2c1C", "SW-620", "condition not met"],
  ["CN(C)c1ccc(/C=C2/C(=O)N(c3c(Cl)cccc3Cl)c3ccccc32)cc1", "SW-620", "condition not met"],
  ["O=C1/C(=C/c2ccc(F)cc2)c2ccccc2N1c1c(Cl)cccc1Cl", "SW-620", "condition met"],
  ["O=C1/C(=C/c2ccc(Cl)cc2Cl)c2ccccc2N1c1c(Cl)cccc1Cl", "SW-620", "condition met"],
  ["O=C1/C(=C/c2ccco2)c2ccccc2N1c1c(Cl)cccc1Cl", "SW-620", "condition not met"],
  ["O=C1/C(=C/c2ccccc2[N+](=O)[O-])c2ccccc2N1c1c(Cl)cccc1Cl", "SW-620", "condition not met"]
]}

Dear colleague, could you confirm whether EC50 of `Cc1ccc2nc(Cl)c(/C=C3/C(=O)N(c4c(Cl)cccc4Cl)c4ccccc43)cc2c1` falls below 50 µg/mL? Thanks. condition met

Dear colleague, could you confirm whether EC50 of `O=C1/C(=C/c2c(Cl)cccc2Cl)c2ccccc2N1c1c(Cl)cccc1Cl` falls below 50 µg/mL? Thanks. condition not met

Dear colleague, could you confirm whether EC50 of `COc1ccc(/C=C2/C(=O)N(c3c(Cl)cccc3Cl)c3ccccc32)cc1` falls below 50 µg/mL? Thanks. condition not met

Dear colleague, could you confirm whether EC50 of `O=C1/C(=C/c2ccccc2Cl)c2ccccc2N1c1c(Cl)cccc1Cl` falls below 50 µg/mL? Thanks. condition met

Dear colleague, could you confirm whether EC50 of `O=C1/C(=C/c2cc3ccccc3nc2Cl)c2ccccc2N1c1c(Cl)cccc1Cl` falls below 50 µg/mL? Thanks. condition met
